Test: Mouse IV pharmacokinetics
Type: in vivo, Balb/c mice
Conditions: male, Balb/c, plasma; Mouse IV-PK (5 mg/kg)
Method: […] Blood concentration-time data of test compound was analyzed by non-compartmental method using Phoenix WinNonlin Version 8.1.
parameter_measured: AUC (ng·h/mL)

{"compound": "C#CC(=O)N1[C@@H](CCCC)Cc2cc(OC)ccc2[C@@H]1c1ccc(NC23CC4CC(CC(C4)C2)C3)cc1 [Compound 28]", "unit_annotation": "ng·h/mL", "measured_number": 1640}
{"compound": "C#CC(=O)N1[C@@H](CCCC)Cc2cc(OC)ccc2[C@@H]1c1ccc(F)cc1 [Compound 12]", "unit_annotation": "ng·h/mL", "measured_number": 181}

###

Assay: Rat IV pharmacokinetics
Type: in vivo, SD rats
Conditions: male, SD, plasma; Rat IV-PK (2 mg/kg)

{"compound": "C#CC(=O)N1[C@@H](CCCC)Cc2cc(OC)ccc2[C@@H]1c1ccc(NC23CC4CC(CC(C4)C2)C3)cc1 [Compound 28]", "unit_annotation": "mL/min/kg", "clearance": 30}

###

Experiment: Rat IV pharmacokinetics
Assay type: in vivo, SD rats
Conditions: male, SD, plasma; Rat IV-PK (2 mg/kg)
parameter_measured: Vd (L/kg)

{"compound": "C#CC(=O)N1[C@@H](CCCC)Cc2cc(OC)ccc2[C@@H]1c1ccc(NC23CC4CC(CC(C4)C2)C3)cc1 [Compound 28]", "parameter_measured": "Vd", "measured_number": 8.2}

###

Each item that follows carries a reported IC50.
Test system: 786-O
Assay: GPX4 inhibition assay: Ferrostatin rescue, 786-O
Type: cell-based
Settings: Homo sapiens, 786-0; 786-O cells, 2 μM Ferrostatin; read-out: 786-O (IC50, μM) 2 μM Ferrostatin

{"cpd_smiles": "COc1ccc2c(c1)C[C@H](C)N(C(=O)CCl)[C@H]2c1ccc(C(=O)NC2CC2)cc1", "test_target": "786-O", "IC50": "> 10 µM"}
{"cpd_smiles": "C#CC(=O)N1[C@@H](c2ccc(C(=O)NC3CC3)cc2)c2ccc(OC)cc2C[C@@H]1C", "test_target": "786-O", "IC50": "5.73 µM"}
{"cpd_smiles": "COc1ccc2c(c1)C[C@H](C)N(C(=O)CCl)[C@H]2c1ccc(F)cc1", "test_target": "786-O", "IC50": "> 10 µM"}
{"cpd_smiles": "C#CC(=O)N1[C@@H](c2ccc(F)cc2)c2ccc(OC)cc2C[C@@H]1C", "test_target": "786-O", "IC50": "> 10 µM"}

###

Each entry below carries its recorded Cmax.
Assay: Mouse IV pharmacokinetics
Assay type: in vivo, Balb/c mice
Conditions: male, Balb/c, plasma; Mouse IV-PK (5 mg/kg)
Protocol: […] Blood concentration-time data of test compound was analyzed by non-compartmental method using Phoenix WinNonlin Version 8.1.

{"cpd_smiles": "C#CC(=O)N1[C@@H](CCCC)Cc2cc(OC)ccc2[C@@H]1c1ccc(F)cc1", "Cmax (ng/mL)": 882}
{"cpd_smiles": "C#CC(=O)N1[C@@H](CCCC)Cc2cc(OC)ccc2[C@@H]1c1ccc(NC23CC4CC(CC(C4)C2)C3)cc1", "Cmax (ng/mL)": 5450}

###

Assay: Rat IV pharmacokinetics
Format: in vivo, SD rats
Settings: male, SD, plasma; Rat IV-PK (2 mg/kg)

{"cpd_smiles": "C#CC(=O)N1[C@@H](CCCC)Cc2cc(OC)ccc2[C@@H]1c1ccc(NC23CC4CC(CC(C4)C2)C3)cc1", "unit_annotation": "ng·h/mL", "AUC": 1080}

###

Assay: Rat IV pharmacokinetics
Type: in vivo, SD rats
Conditions: male, SD, plasma; Rat IV-PK (2 mg/kg)

{"compound": "C#CC(=O)N1[C@@H](CCCC)Cc2cc(OC)ccc2[C@@H]1c1ccc(NC23CC4CC(CC(C4)C2)C3)cc1 [Compound 28]", "unit_annotation": "h", "half-life": 3.15}

###

Tested on: A431
Test: Cell proliferation (Alamar Blue) assay, A431
Type: cell-based, human
Conditions: A431 cells, 24 h treatment, hydrochloride
Structures can show the parent of a compound that is named as a salt.
parameter_measured: IC50 (µM)

{"compound": "C#CC(=O)N1[C@@H](CCCC)Cc2cc(OC)ccc2[C@@H]1c1ccc(NC23CC4CC(CC(C4)C2)C3)cc1 [Compound 101, hydrochloride]", "measured_number": 6.87}

###

Assay: Mouse IV pharmacokinetics
Type: in vivo, Balb/c mice
Details: male, Balb/c, plasma; Mouse IV-PK (5 mg/kg)
Below, each entry is listed alongside its reported clearance.

{"cpd_smiles": "C#CC(=O)N1[C@@H](CCCC)Cc2cc(OC)ccc2[C@@H]1c1ccc(NC23CC4CC(CC(C4)C2)C3)cc1", "clearance [mL/min/kg]": 49}
{"cpd_smiles": "C#CC(=O)N1[C@@H](CCCC)Cc2cc(OC)ccc2[C@@H]1c1ccc(F)cc1", "clearance [mL/min/kg]": 454}
